Where do these numbers come from? They come from the supplement of paper PMC7877785.

Assignment: determine reported self-splicing fitness (ln) for the given sequences.
Protocol: self-splicing fitness, log relative to wild type (ln ratio); higher = more splicing; Tetrahymena group I intron in knt gene, E. coli kanamycin selection, DiMSum; sequences stand for … in CUCUCU…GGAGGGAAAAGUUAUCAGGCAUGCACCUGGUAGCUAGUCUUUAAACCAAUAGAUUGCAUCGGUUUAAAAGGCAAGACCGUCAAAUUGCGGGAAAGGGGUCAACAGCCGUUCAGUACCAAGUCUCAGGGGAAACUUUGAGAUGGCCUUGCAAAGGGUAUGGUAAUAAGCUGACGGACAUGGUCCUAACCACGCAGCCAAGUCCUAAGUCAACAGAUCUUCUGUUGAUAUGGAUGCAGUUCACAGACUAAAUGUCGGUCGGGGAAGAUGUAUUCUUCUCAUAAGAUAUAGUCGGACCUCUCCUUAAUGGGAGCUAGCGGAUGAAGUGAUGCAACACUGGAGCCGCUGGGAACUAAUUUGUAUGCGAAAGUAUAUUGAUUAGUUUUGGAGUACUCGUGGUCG;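 also: selection with 25 µg/mL kanamycin versus none on LB agar overnight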
Details: 30 °C
Keep the answer to the number alone.

For GCAUAGCAAUAUUACGAGCC the sequence record lists self-splicing fitness (ln) as -2.61

Memo: CCUGAGCAAUAUUACGUCGA , reported self-splicing fitness (ln): -3.41

# self-splicing fitness (ln) of GGACAGCAAUAUUACGAAUC = -0.0402

Note to self: self-splicing fitness (ln) recorded for UUUGAGCAAUAUUACGCAAG was -3.09

Note to self: self-splicing fitness (ln) recorded for ACUAAGCAAUAUUACGGGGG was -3.59

Lookup result for UAGGAGCAAUAUUACGCUUC ; measured self-splicing fitness (ln): -2.64
